# procedure details: Total cell viability by CCK-8 assay
# Format: cell-based
# condition notes: human, Table 2, 24 hour incubation
Give CC50 at 24 h for every item shown.

Some solved entries appear below for comparison.
Cc1[nH]c2cc(Nc3nc(OCCOc4cccnc4)nc(N4CCOCC4)n3)ccc2c1C: > 1 µM
COc1ccc(CCOc2nc(Nc3ccc4c(c3)oc3ccccc34)nc(N3CCOCC3)n2)cc1OC: > 1 µM
c1cncc(OCCOc2nc(Nc3ccc4c(c3)oc3ccccc34)nc(N3CCOCC3)n2)c1: > 1 µM
Cc1[nH]c2ccc(Nc3nc(OCCc4ccccn4)nc(N4CCOCC4)n3)cc2c1C: > 1 µM

# next compound below
Prompt: Requested field: CC50 at 24 h. Item: `C(=NNc1nc(OCCc2ccccn2)nc(N2CCOCC2)n1)c1c[nH]c2ccccc12`
Completion: > 10 µM

----------
# procedure details: Total cell viability by CCK-8 assay
# Format: cell-based
# condition notes: human, Table 1, 24 hour incubation
outcome measure: CC50 at 24 h

Use the examples below as a reference point.
Cc1cccc(C=NNc2cc(N3CCOCC3)nc(OCC(O)c3ccccn3)n2)c1 (centres unmarked): > 1000 nM
OCc1cccc(/C=N/Nc2cc(N3CCOCC3)nc(OCCc3ccc(O)cn3)n2)c1: > 1000 nM
Cc1cccc(/C=N/Nc2cc(N3CCOCC3)nc(OCCc3ccccn3)n2)c1: 3250 nM
Cc1cccc(/C=N/Nc2cc(N3CCOCC3)nc(OCCc3ccc(O)cn3)n2)c1: > 1000 nM

Continue with the compound presented below.
Prompt: Name the reported CC50 at 24 h value associated with the compound `Cc1cccc(/C=N/Nc2cc(N3CCOCC3)nc(OCCc3cccc[n+]3[O-])n2)c1`
Completion: > 1000 nM

----------
# System: Human peripheral blood mononuclear cells (PBMC)
# procedure details: Inhibition of osteoclast formation (RANKL/M-CSF induced, TRAP staining)
# Type: cell-based
# condition notes: 96 h, read-out: IC50 (compound concentration required for 50% inhibition of osteoclast formation), Table 1, 20 ng/ml RANKL + 10 ng/ml M-CSF, TRAP-positive cells with more than 3 nuclei
Task for the reader: assign each of the following molecules its reported IC50.
One number for each entry, in nM.

Worked set:
Cc1cccc(/C=N/Nc2cc(N3CCOCC3)nc(OCCc3ccccn3)n2)c1: 15
OCc1cccc(/C=N/Nc2cc(N3CCOCC3)nc(OCCc3ccc(O)cn3)n2)c1: 17
Cc1cccc(C=NNc2cc(N3CCOCC3)nc(OCC(O)c3ccccn3)n2)c1 (centres unmarked): 8
Cc1cccc(/C=N/Nc2cc(N3CCOCC3)nc(OCCc3cccc[n+]3[O-])n2)c1: 70

Prompt: Request body: readout IC50, system Human peripheral blood mononuclear cells (PBMC), query `Cc1cccc(/C=N/Nc2cc(N3CCOCC3)nc(OCCc3ccc(O)cn3)n2)c1` . Return the value.
Completion: 12
